# Measurement Target: Cannabinoid receptor 2 (Homo sapiens)
# Sequence (P34972 whole entry): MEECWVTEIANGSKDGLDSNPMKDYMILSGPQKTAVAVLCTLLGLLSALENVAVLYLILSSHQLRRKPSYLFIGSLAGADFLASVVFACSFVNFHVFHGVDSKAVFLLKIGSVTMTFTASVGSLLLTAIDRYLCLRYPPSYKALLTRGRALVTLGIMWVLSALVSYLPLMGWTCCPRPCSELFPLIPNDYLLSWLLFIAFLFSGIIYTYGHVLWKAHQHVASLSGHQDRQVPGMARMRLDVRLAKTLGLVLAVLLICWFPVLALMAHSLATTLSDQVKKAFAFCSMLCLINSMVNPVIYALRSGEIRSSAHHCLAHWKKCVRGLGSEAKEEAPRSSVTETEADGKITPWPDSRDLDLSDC
# Assay Remarks: Displacement of [3H]-CP55940 from human CB2 receptor expressed in CHO cell membranes at 10 uM incubated for 1 hr by TopCount liquid scintillation counting analysis relative to control
# Reported Conditions: Membrane
Measurement Type: Activity (%)

• C/C(=C/CC[C@]1(C)[C@@H]2C[C@@H]3[C@H](C2)[C@@]31C)CNNC(=O)c1ccc(N(C)C)cc1 = 26.5
• C/C(=C/CC[C@]1(C)[C@@H]2C[C@@H]3[C@H](C2)[C@@]31C)CN1CCCC1 = 8.03
• C/C(=C/CC[C@]1(C)[C@@H]2C[C@@H]3[C@H](C2)[C@@]31C)COC(=O)CCC(=O)O = 5.82
• C/C(=C/CC[C@]1(C)[C@@H]2C[C@@H]3[C@H](C2)[C@@]31C)CN(CCO)CCO = 1.72
• C/C(=C/CC[C@]1(C)[C@@H]2C[C@@H]3[C@H](C2)[C@@]31C)CN1CCOCC1 = 21.3
• C/C(=C/CC[C@]1(C)[C@@H]2C[C@@H]3[C@H](C2)[C@@]31C)CN(C)C = 2.94
• C/C(=C/CC[C@]1(C)[C@@H]2C[C@@H]3[C@H](C2)[C@@]31C)CN1CCCCC1 = 16.8
• C/C(=C/CC[C@]1(C)[C@@H]2C[C@@H]3[C@H](C2)[C@@]31C)CNNC(=O)c1ccccc1 = 26.9
